Entries and their minimal effective concentration values follow.
- Tested on: interferon-stimulated responsive elements (ISRE)
- protocol description: Activation of ISRE promoter elements in HEK-ISREluc cells by conditioned media from PBMC
- Format: cell-based
- assay context: Homo sapiens, compound concentration applied to PBMCs, supernatant transferred to HEK-ISREluc cells, 24 hours, read-out: HEK-ISRE luc (LEC)
measurement kind: minimal effective concentration (µM)

INSERT INTO measurements (compound, uom, endpoint_result) VALUES
  ('COc1ccc(F)c2nc(N)nc(NCc3cc(C)on3)c12', 'µM', 0.46),
  ('Cc1cc(CNc2nc(N)nc3c(F)cccc23)no1', 'µM', 0.13),
  ('CCN(CC)C(=O)c1ccc2c(N[C@H](C)c3ccccn3)nc(N)nc2c1 (single isomer, unassigned)', 'µM', 7.33),
  ('CNC(=O)c1ccc2c(NC(C)c3ccccn3)nc(N)nc2c1 (centres unmarked)', 'µM', 2.2),
  ('CC(Nc1nc(N)nc2cc(C(=O)N(C)C(C)C)ccc12)c1ccccn1 (centres unmarked)', 'µM', 1.75),
  ('C[C@@H](Nc1nc(N)nc2cc(F)ccc12)c1ccccn1 (single isomer, unassigned)', 'µM', 0.59),
  ('COc1cccc2nc(N)nc(N[C@H](C)c3cccc(C)n3)c12 (single isomer, unassigned)', 'µM', 0.62),
  ('COc1cccc2nc(N)nc(N[C@@H](C)[C@H](O)c3ccccc3)c12', 'µM', 0.56),
  ('C[C@@H](Nc1nc(N)nc2c(F)cccc12)c1ccccn1 (single isomer, unassigned)', 'µM', 1.68),
  ('Nc1nc(N[C@@H](CO)[C@@H](O)c2ccccc2)c2ccccc2n1', 'µM', 0.16),
  ('C[C@@H](Nc1nc(N)nc2cc(C(=O)N3CCCC3)ccc12)c1ccccn1 (single isomer, unassigned)', 'µM', 1.57),
  ('Cc1cc(CNc2nc(N)nc3cc(F)ccc23)no1', 'µM', 0.12),
  ('COc1ccc2c(N[C@H](C)c3ccccn3)nc(N)nc2c1 (single isomer, unassigned)', 'µM', 0.64),
  ('CCn1ncnc1[C@H](C)Nc1nc(N)nc2cccc(OC)c12 (single isomer, unassigned)', 'µM', 0.54),
  ('Cc1cc(CNc2nc(N)nc3cccc(CO)c23)no1', 'µM', 0.14),
  ('C[C@H](Nc1nc(N)nc2cccc(F)c12)c1ccccn1 (single isomer, unassigned)', 'µM', 7.83),
  ('CC(Nc1nc(N)nc2cc(C(=O)N(C)C)ccc12)c1ccccn1 (centres unmarked)', 'µM', 1.62);

meta.source: patent US10723707B2
